System: ACHN renal
Assay: NCI tumour cell line growth inhibition, 48 h
Below, each entry is listed with its recorded TGI.

Example compounds with recorded TGI:
>  <compound>
c1cc(-c2csc(-c3ccsc3)c2)cs1

>  <tested_on>
ACHN renal

>  <TGI>
> 100 µM

$$$$
>  <compound>
O=C(c1ccco1)C1CC(c2ccc3ccccc3c2O)=NN1 (stereo unspecified)

>  <tested_on>
ACHN renal

>  <TGI>
> 100 µM

$$$$
>  <compound>
Cc1cccc(-n2c(C)nc3ccc(NC4OC(CO)C(O)C(O)C4O)cc3c2=O)c1 (stereo unspecified)

>  <tested_on>
ACHN renal

>  <TGI>
> 100 µM

$$$$
>  <compound>
O=C(CBr)N1CCC2(CC1)SSC1(CCN(C(=O)CBr)CC1)S2

>  <tested_on>
ACHN renal

>  <TGI>
2.87 µM

$$$$

// query Give the measured TGI of O=C(CC(=O)c1ccc([N+](=O)[O-])cc1)C(=O)Nc1nccs1 .
// result > 100 µM

// query What would you report for Cn1cc(C2=C(c3c4n(c5ccccc35)CCCC4)C(=O)NC2=O)c2ccccc21 ?
// result > 25 µM

// query Also COc1cc(N2CCN(C(C)C)CC2)ccc1Nc1nc(Nc2cccc3ncccc23)c2cc[nH]c2n1 , if possible.
// result > 25 µM
